These entries and their values trace back to ChEMBL document CHEMBL1156161.

Please provide measured LD50 for the entries that follow.
# TEST PROTOCOL: Toxicity in ip dosed ddY mouse
# Format: organism-based
# RUN PARAMETERS: in vivo

Read off the recorded LD50 for CS[C@]1(CO)C(=O)N2[C@H]3C(=CC=C[C@@H]3O)C[C@@]2(SC)C(=O)N1C
> 500 mg/kg

Name the recorded LD50 of the item CN1C(=O)[C@]23CC4=CC=C[C@H](O)[C@H]4N2C(=O)[C@@]1(CO)SS3 in your answer.
17.9 mg/kg

###

# System: Macrophomina phaseolina
# TEST PROTOCOL: Antimicrobial activity against Macrophomina phaseolina
# Assay type: functional
# RUN PARAMETERS: read-out: ED50 (the source's name)
PARAMETER: EC50 (µM)
// return numeric value only (unit: µM, not printed)

Provide one value: measured EC50 of CN1C(=O)[C@]23CC4=CC=C[C@H](O)[C@H]4N2C(=O)[C@@]1(CO)SS3 [GLIOTOXIN]
5.4
